Where do these numbers come from? They come from patent US20240199558A1.

Below, each of the compounds is paired with its reported pIC50 value.
Molecular target: CX3CR1 (Homo sapiens (Human))
Assay: hCX3CR1 [3H]-AZD8797 competitive binding assay (filter)
Details: CHO-hCX3CR1 membranes, 2 nM [3H]-AZD8797
pIC50: −log10 of the molar value.
READOUT_LABEL: pIC50

[[record]]
compound = "CC(C)C[C@H](CO)Nc1nc(CC(C)c2ccc(F)cc2O)nc(NS(C)(=O)=O)n1 (some centres unmarked) [Example 142]"
readout_label = "pIC50"
recorded_measurement = 6.96

[[record]]
compound = "CC(C)C[C@H](CO)Nc1nc(C[C@@H](C)c2cc(Cl)ccc2F)nc(NS(C)(=O)=O)n1 (single isomer, unassigned) [Example 30]"
readout_label = "pIC50"
recorded_measurement = 6.83

[[record]]
compound = "COc1ccc([C@H](C)Cc2nc(N[C@@H](CO)CC(C)C)nc(NS(C)(=O)=O)n2)c(OC)n1 (single isomer, unassigned) [Example 52]"
readout_label = "pIC50"
recorded_measurement = 6.35

[[record]]
compound = "CC(C)C[C@H](CO)Nc1nc(CC(C)c2ccc3ncn(C)c(=O)c3c2)nc(NS(C)(=O)=O)n1 (some centres unmarked) [Example 124]"
readout_label = "pIC50"
recorded_measurement = 6.90

[[record]]
compound = "CCOc1ccc(C(C)Cc2nc(N[C@@H](CO)CC(C)C)nc(NS(C)(=O)=O)n2)cc1 (some centres unmarked) [Example 123]"
readout_label = "pIC50"
recorded_measurement = 6.47

[[record]]
compound = "CC(C)C[C@H](CO)Nc1nc(C[C@H](C)c2ccc(Cl)cc2)nc(NS(C)(=O)=O)n1 (single isomer, unassigned) [Example 171]"
readout_label = "pIC50"
recorded_measurement = 6.11

[[record]]
compound = "CC(C)C[C@H](CO)Nc1nc(CC(C)c2cccc3cccnc23)nc(NS(C)(=O)=O)n1 (some centres unmarked) [Example 103]"
readout_label = "pIC50"
recorded_measurement = 7.77

[[record]]
compound = "CC(C)C[C@H](CO)Nc1nc(CC(C)c2ccc(C3CCOCC3)cc2)nc(NS(C)(=O)=O)n1 (some centres unmarked) [Example 102]"
readout_label = "pIC50"
recorded_measurement = 7.06

[[record]]
compound = "CC(C)C[C@H](CO)Nc1nc(CC(C)c2ccnc(Cl)c2)nc(NS(C)(=O)=O)n1 (stereo in doubt) [Example 26]"
readout_label = "pIC50"
recorded_measurement = 7.36

[[record]]
compound = "CC(C)C[C@H](CO)Nc1nc(C[C@@H](C)c2ccc(Cl)cn2)nc(NS(C)(=O)=O)n1 (single isomer, unassigned) [Example 150]"
readout_label = "pIC50"
recorded_measurement = 6.73

[[record]]
compound = "COc1ncc([C@H](C)Cc2nc(N[C@@H](CO)CC(C)C)nc(NS(C)(=O)=O)n2)cc1C (single isomer, unassigned) [Example 15]"
readout_label = "pIC50"
recorded_measurement = 6.60

[[record]]
compound = "COc1ccc([C@@H](C)Cc2nc(N[C@@H](CO)CC(C)C)nc(NS(C)(=O)=O)n2)c(F)n1 (single isomer, unassigned) [Example 86]"
readout_label = "pIC50"
recorded_measurement = 7.14

[[record]]
compound = "COCc1ccc(C(C)Cc2nc(N[C@@H](CO)CC(C)C)nc(NS(C)(=O)=O)n2)cc1 (some centres unmarked) [Example 69]"
readout_label = "pIC50"
recorded_measurement = 6.08

[[record]]
compound = "CC(C)C[C@H](CO)Nc1nc(C[C@@H](C)c2cccc(Cl)c2F)nc(NS(C)(=O)=O)n1 (single isomer, unassigned) [Example 4]"
readout_label = "pIC50"
recorded_measurement = 7.77


###

Below, each of the compounds is paired with its reported IC50 value.
Biological target: CX3CR1 (Homo sapiens (Human))
Experiment: hCX3CR1 [3H]-AZD8797 competitive binding assay (filter)
Settings: CHO-hCX3CR1 membranes, 2 nM [3H]-AZD8797
READOUT_LABEL: IC50

[[record]]
compound = "CC(C)C[C@H](CO)Nc1nc(C[C@H](C)c2ccc(N)nc2)nc(NS(C)(=O)=O)n1 (single isomer, unassigned) [Example 50]"
readout_label = "IC50"
recorded_measurement = "342 nM"

[[record]]
compound = "CC(C)C[C@H](CO)Nc1nc(CC(C)c2ccc(N)c(F)c2)nc(NS(C)(=O)=O)n1 (stereo partly drawn) [Example 136]"
readout_label = "IC50"
recorded_measurement = "16 nM"

[[record]]
compound = "COc1ncc([C@H](C)Cc2nc(N[C@@H](CO)CC(C)C)nc(NS(C)(=O)=O)n2)cc1Cl (single isomer, unassigned) [Example 9]"
readout_label = "IC50"
recorded_measurement = "205 nM"


###

Target: CX3CR1 (Homo sapiens (Human), UniProt P49238)
Sequence (P49238 whole entry): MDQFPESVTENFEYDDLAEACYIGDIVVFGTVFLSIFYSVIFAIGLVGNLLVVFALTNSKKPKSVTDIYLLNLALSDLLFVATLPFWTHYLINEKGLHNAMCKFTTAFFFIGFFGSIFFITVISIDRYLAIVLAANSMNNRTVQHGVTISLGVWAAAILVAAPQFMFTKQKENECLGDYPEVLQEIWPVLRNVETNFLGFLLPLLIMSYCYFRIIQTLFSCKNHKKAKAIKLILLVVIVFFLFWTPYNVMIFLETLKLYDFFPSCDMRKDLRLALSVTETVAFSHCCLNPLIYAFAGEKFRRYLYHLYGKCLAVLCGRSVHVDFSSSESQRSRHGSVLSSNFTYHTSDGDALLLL
Experiment: hCX3CR1 [125I]-CX3CL1 displacement binding (SPA)
Settings: CHO-hCX3CR1 membranes, [125I]-CX3CL1, SPA beads
Protocol: hCX3CR1 [^125I]-CX3CL1 Displacement Binding (SPA) CHO-hCX3CR1 membranes (3 μg per well) together with […] [^125I]-CX3CL1 (Perkin Elmer) and different concentrations of competitor compound were incubated together with 400 μg/well WGA coated PVT SPA beads (Perkin Elmer) in 50 mM HEPES (pH 7.4), 10 mM MgCl2, 1 mM EDTA and 0.1% Gelatin in a Greiner polystyrene flat-bottom 384-well plate. […]
pIC50: −log10 of the molar value.
READOUT_LABEL: pIC50

[[record]]
compound = "CC(C)C[C@H](CO)Nc1nc(C[C@@H](C)c2ccc(Cl)cc2F)nc(NS(C)(=O)=O)n1 (single isomer, unassigned)"
readout_label = "pIC50"
recorded_measurement = 6.46

[[record]]
compound = "CC(C)C[C@H](CO)Nc1nc(C[C@@H](C)c2cccc(F)c2F)nc(NS(C)(=O)=O)n1 (single isomer, unassigned)"
readout_label = "pIC50"
recorded_measurement = 6.98

[[record]]
compound = "CC(C)C[C@H](CO)Nc1nc(C[C@@H](C)c2ccc(Cl)cn2)nc(NS(C)(=O)=O)n1 (single isomer, unassigned)"
readout_label = "pIC50"
recorded_measurement = 5.82


###

Below, each of the compounds is paired with its reported pIC50 value.
Molecular target: CX3CR1 (Homo sapiens (Human), UniProt P49238)
Experiment: hCX3CR1 [3H]-AZD8797 competitive binding assay (filter)
Conditions: CHO-hCX3CR1 membranes, 2 nM [3H]-AZD8797
pIC50: −log10 of the molar value.
READOUT_LABEL: pIC50

[[record]]
compound = "CC(C)C[C@H](CO)Nc1nc(C[C@H](C)c2cccc(F)c2F)nc(NS(C)(=O)=O)n1 (single isomer, unassigned)"
recorded_measurement = 6.81

[[record]]
compound = "CC(C)C[C@H](CO)Nc1nc(CC(C)c2ccc(C#N)cc2)nc(NS(C)(=O)=O)n1 (stereo partly drawn) [Example 68]"
recorded_measurement = 6.47

[[record]]
compound = "CC(C)C[C@H](CO)Nc1nc(C[C@H](C)c2ccc(F)cc2F)nc(NS(C)(=O)=O)n1 (single isomer, unassigned)"
recorded_measurement = 6.62

[[record]]
compound = "CC(C)C[C@H](CO)Nc1nc(C[C@@H](C)c2cc(F)c(F)cc2F)nc(NS(C)(=O)=O)n1 (single isomer, unassigned)"
recorded_measurement = 6.30

[[record]]
compound = "CC(=O)Nc1ccc(C(C)Cc2nc(N[C@@H](CO)CC(C)C)nc(NS(C)(=O)=O)n2)cc1 (stereo partly drawn)"
recorded_measurement = 6.53

[[record]]
compound = "CC(C)C[C@H](CO)Nc1nc(C[C@@H](C)c2c(F)cccc2F)nc(NS(C)(=O)=O)n1 (single isomer, unassigned)"
recorded_measurement = 7.66

[[record]]
compound = "CC(C)C[C@H](CO)Nc1nc(CC(C)c2ccc(N3CCNCC3)cc2)nc(NS(C)(=O)=O)n1 (stereo partly drawn)"
recorded_measurement = 6.82

[[record]]
compound = "Cc1c2ccc(C(C)Cc3nc(N[C@@H](CO)CC(C)C)nc(NS(C)(=O)=O)n3)cc2nn1C (stereo partly drawn)"
recorded_measurement = 7.62

[[record]]
compound = "CC(C)C[C@H](CO)Nc1nc(CC(C)c2ccc(CCO)nc2)nc(NS(C)(=O)=O)n1 (stereo partly drawn)"
recorded_measurement = 6.58

[[record]]
compound = "CC(C)C[C@H](CO)Nc1nc(C[C@H](C)c2ccnc(Cl)c2)nc(NS(C)(=O)=O)n1 (single isomer, unassigned)"
recorded_measurement = 5.87

[[record]]
compound = "COc1cc(F)c([C@H](C)Cc2nc(N[C@@H](CO)CC(C)C)nc(NS(C)(=O)=O)n2)cn1 (single isomer, unassigned)"
recorded_measurement = 7.28

[[record]]
compound = "CC(C)C[C@H](CO)Nc1nc(CC(C)c2ccc(CCN3CCOCC3)cc2)nc(NS(C)(=O)=O)n1 (stereo partly drawn)"
recorded_measurement = 6.92

[[record]]
compound = "COc1ncccc1[C@@H](C)Cc1nc(N[C@@H](CO)CC(C)C)nc(NS(C)(=O)=O)n1 (single isomer, unassigned)"
recorded_measurement = 6.12

[[record]]
compound = "CC(C)C[C@H](CO)Nc1nc(C[C@@H](C)c2cc(F)c(F)c(F)c2)nc(NS(C)(=O)=O)n1 (single isomer, unassigned)"
recorded_measurement = 6.59

[[record]]
compound = "CC(C)C[C@H](CO)Nc1nc(C[C@H](C)c2c(F)cccc2F)nc(NS(C)(=O)=O)n1 (single isomer, unassigned)"
recorded_measurement = 5.49

[[record]]
compound = "CCOc1ccc([C@H](C)Cc2nc(N[C@@H](CO)CC(C)C)nc(NS(C)(=O)=O)n2)cn1 (single isomer, unassigned)"
recorded_measurement = 6.86

[[record]]
compound = "CC(C)C[C@H](CO)Nc1nc(CC(c2ccccc2)C(F)(F)F)nc(NS(C)(=O)=O)n1 (stereo partly drawn)"
recorded_measurement = 6.31

[[record]]
compound = "CC(C)C[C@H](CO)Nc1nc(CC(C)c2ccc(OC(F)F)nc2)nc(NS(C)(=O)=O)n1 (stereo partly drawn)"
recorded_measurement = 6.45

[[record]]
compound = "CC(C)C[C@H](CO)Nc1nc(CC(C)c2ccc(C#N)c(F)c2)nc(NS(C)(=O)=O)n1 (stereo partly drawn)"
recorded_measurement = 6.76

[[record]]
compound = "CC(C)C[C@H](CO)Nc1nc(CC(C)c2cnc3c(c2)OCC(=O)N3C)nc(NS(C)(=O)=O)n1 (stereo partly drawn)"
recorded_measurement = 7.07

[[record]]
compound = "CC(C)C[C@H](CO)Nc1nc(CC(C)c2ccc(C3COC3)cc2)nc(NS(C)(=O)=O)n1 (stereo partly drawn)"
recorded_measurement = 6.95

[[record]]
compound = "CC(C)C[C@H](CO)Nc1nc(C[C@@H](C)c2ccccc2F)nc(NS(C)(=O)=O)n1 (single isomer, unassigned)"
recorded_measurement = 7.64

[[record]]
compound = "CC(C)C[C@H](CO)Nc1nc(C[C@H](C)c2c(F)cc(Cl)cc2F)nc(NS(C)(=O)=O)n1 (single isomer, unassigned)"
recorded_measurement = 5.04

[[record]]
compound = "CC(C)C[C@H](CO)Nc1nc(CC(C)c2ccc(CO)c(F)c2)nc(NS(C)(=O)=O)n1 (stereo partly drawn)"
recorded_measurement = 7.59

[[record]]
compound = "COc1ccc(C(C)Cc2nc(N[C@@H](CO)CC(C)C)nc(NS(C)(=O)=O)n2)cc1OC (stereo partly drawn)"
recorded_measurement = 6.83

[[record]]
compound = "COc1c(F)cccc1C(C)Cc1nc(N[C@@H](CO)CC(C)C)nc(NS(C)(=O)=O)n1 (stereo partly drawn)"
recorded_measurement = 6.46

[[record]]
compound = "CC(C)C[C@H](CO)Nc1nc(CC(C)c2cc(Cl)ccc2O)nc(NS(C)(=O)=O)n1 (stereo partly drawn)"
recorded_measurement = 6.95

